System: B16
Experiment: Effect on the survival of mouse B16 melanoma cells was determined at a dose of 10 ug/mL in vitro
Assay type: functional
Conditions: read-out: Survival
Below, each entry is listed alongside its reported viability at 10 µg/mL.

| Molecule | Measurement Units | viability at 10 µg/mL |
| --- | --- | --- |
| Cc1c(N)nc(C(CC(N)=O)NCC(N)C(N)=O)nc1C(=O)NC(C(=O)NC(C)C(O)C(C)C(=O)NC(C(=O)NCCc1nc(-c2nc(C(=O)NCCC[S+](C)CC(=O)N3CCCC3)cs2)cs1)C(C)O)C(O[C@@H]1O[C@@H](CO)[C@@H](O)[C@@H](O)[C@@H]1O[C@H]1O[C@H](CO)[C@@H](O)[C@@H](OC(N)=O)[C@@H]1O)c1c[nH]cn1 (some centres not stated) | % | 35 |
| Cc1c(N)nc([C@H](CC(N)=O)NC[C@H](N)C(N)=O)nc1C(=O)N[C@H](C(=O)N[C@H](C)[C@@H](O)[C@H](C)C(=O)N[C@H](C(=O)NCCc1nc(-c2nc(C(=O)NCCC[S+](C)C)cs2)cs1)[C@@H](C)O)[C@@H](O[C@@H]1O[C@@H](CO)[C@@H](O)[C@H](O)[C@@H]1O[C@H]1O[C@H](CO)[C@@H](O)[C@H](OC(N)=O)[C@@H]1O)c1c[nH]cn1 [BLEOMYCIN A2] | % | 39 |
